Taken from PubChem BioAssay AID1159580.

experimental-protocol: chemical genetic growth profiling, strain panel (AID 1159580);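 note: tested at 20 µM; growth read once vehicle control cultures reached saturation at 30 °C; lower values mean less growth of the strain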
run-conditions: S. cerevisiae deletion strains, growth OD, locus YEL061C, strain CIN8
Out of some 5,500 compounds screened, about 2,000 (36%) were called active. Roughly 18% stayed inconclusive and do not appear here. Cut-off read from the data, not from the text of the source: active = normalized growth mostly below about 0.91 (no sharp cut-off); inconclusive = no clear call, values can overlap the other calls; inactive = mostly above about 0.92. The list shows a part of the results.
# output must be one of active, inactive

Reference set (2 entries):
CN1C2CCC1CC(=NO)C2; inactive
Cc1onc(NC(=O)NC(=O)c2c(F)cccc2Cl)c1Br; inactive

Which result was noted for this compound in the test: Oc1c(Cl)cc(Cl)c2cccnc12 active

Similarly, Cc1occc(=O)c1O ? inactive

Similarly, CCCCC1(COC(=O)CCC(=O)O)C(=O)N(c2ccccc2)N(c2ccccc2)C1=O ? inactive

Similarly, O=[N+]([O-])c1ccc(O)c([N+](=O)[O-])c1 ? active

Similarly, CSc1ccc(/C=C/[N+](=O)[O-])cc1 ? active
